system: Mitogen-activated protein kinase kinase kinase 7 (Homo sapiens)
Sequence (O43318 whole entry): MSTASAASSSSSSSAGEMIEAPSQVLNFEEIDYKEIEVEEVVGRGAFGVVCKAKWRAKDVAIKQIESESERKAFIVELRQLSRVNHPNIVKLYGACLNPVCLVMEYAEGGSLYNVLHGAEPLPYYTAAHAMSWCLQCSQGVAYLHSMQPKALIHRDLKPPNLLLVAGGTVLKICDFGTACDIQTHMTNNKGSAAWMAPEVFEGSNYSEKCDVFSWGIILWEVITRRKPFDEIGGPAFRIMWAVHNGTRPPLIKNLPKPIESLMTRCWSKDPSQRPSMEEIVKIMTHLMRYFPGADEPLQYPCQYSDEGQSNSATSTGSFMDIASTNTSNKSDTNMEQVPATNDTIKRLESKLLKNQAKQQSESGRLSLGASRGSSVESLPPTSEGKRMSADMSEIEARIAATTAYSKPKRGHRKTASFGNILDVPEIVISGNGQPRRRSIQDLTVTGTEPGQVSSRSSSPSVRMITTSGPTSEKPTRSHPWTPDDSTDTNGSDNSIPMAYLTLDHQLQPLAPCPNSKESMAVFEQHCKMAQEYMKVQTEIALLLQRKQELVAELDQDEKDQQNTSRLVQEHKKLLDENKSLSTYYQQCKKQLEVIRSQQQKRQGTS
assaySummary: Inhibition of TAK1 (unknown origin)
propertyMeasured: pIC50
One number for each entry, as −log10 of the molar value.

So what's the measured pIC50 for this one? COCCN1CCN(Cc2ccc(-c3cc(NC(N)=O)c(C(N)=O)s3)cc2)CC1
7.30

====

assaySummary: Solubility in 50 mM phosphate buffer at pH 6.5 irradiated ultrasonically for 10 mins followed by incubation for 24 hrs by HPLC-UV analysis
Format: physicochemical
propertyMeasured: solubility at 24 h

These solved cases illustrate the format of a correct answer.
1. COc1cc(N2CCN(C)CC2)ccc1NC(=O)c1csc2cncnc12 :: 353 µg/mL
2. COc1cc(C(=O)NCCCN2CCN(C)CC2)ccc1NC(=O)c1csc2cncnc12 :: 377 µg/mL
3. COc1cc2ncccc2cc1NC(=O)c1csc2cncnc12 :: < 3 µg/mL

So what's the measured solubility at 24 h for this one? COc1cc(C(=O)N2CCN(C)CC2)ccc1NC(=O)c1csc2cncnc12
293 µg/mL
